# assay: yeast display, Sf9 membrane polyspecificity reagent, FACS + sequencing; frameworks hold sequencing errors
observable: polyreactivity (PSR sort gate)

Before answering, review these 5 worked examples.
constructSequence	result
QVQLVESGGGLVQAGGSLRLSCAASGSIFRYYAMGWYRQAHGKERELVAVITSSGTSTYYADSVKGRFTISRDNAKNTVYLQMNSRKPEDTAVDYCAVYPIIYGRMDSWGQGTQVTVSS	low polyreactivity
QVQLVESGGGLVQAGGSLRLSCASSGRIFQFYAMGWYRQEPGKERELVASISWSGGRTYYADSVKGRFTISRDNAKNTVYLQMNSLNPEDTAVYYCAADYYDYYYWGQGTQVTVSS	high polyreactivity
QVQLVESGGGLLQAGGSLRLSCAASGSTFDTYDMGWYRQAPGKERELVAARNSGGDTNYADSVKGRFTISRDNAKNTVYLQMNSLKPEDTAVYYCAVVTYSYPNWYGYWGPGTQVTVSS	high polyreactivity
QVQLVESGGGLVQAGGSLRLSCAASGRILAANAMRWYRQAPGKERELVAAISWSGGRTYYADSVKGRFTISRDNAKNTVYLQMNSLKPEDTAVYYCASVRRYKMDYWGQGTQVTVSS	high polyreactivity
QVQLVESGGGLVQAGGSLRLSCAASGSTFVNNAMGWYRQAPGKERELVAAITNGGSTNYADSVKGRFTISRDNAKNTVYLQMNSLKPEDTAVYYCAKYGDPYRHRSGTVEYGYWGQGTQVTVSS	low polyreactivity

Lookup: Find the recorded polyreactivity (PSR sort gate) belonging to QVQLQESVDGLVQAGGSLSLSSAASGTIFSDYGMGGYRQAPGKERELLAGISDGCNTNYTDSVKGRCTISRDNAHRVSADEQPETGGYRGVLLRGSERWLLFYVYWGQGTQVTVSS and report it.
Found: high polyreactivity

Lookup: I am curious: what polyreactivity (PSR sort gate) value has been reported for QVQLVESGGGLVQAGGSLRLSCAASGSTFHYYARGWYSQAPGKDRELVAAIRTSGGSTYYADSVKGRFTISRDNEKNTVYLLMNCLKPEDTAVYYCNRVLGYPYGVDYWGQGTQVTVSS ?
Found: high polyreactivity

Lookup: // polyreactivity (PSR sort gate) lookup, key: QVQLVESGGGLVQAGGSLRLSCPASGFTFYRYAMGWYRQSPGKEREFVAAITWSGGSTYYADSVKGRFTISRDNAKNTVYLQMNSLKPEDTAVYYCAAYVALDGTREYDYWGQGTQVTVSS
Found: high polyreactivity

Lookup: I am curious: what polyreactivity (PSR sort gate) value has been reported for QVQLVESGGGLVQAGGSLRLSCAASGFIFVYYAMGWYRQAPGKERELVAAITWRGGSTNYADSVKGRFTISRDNAKNTVYLQMNSLIPEDTAVYYCAAYSVWGGSYLALDYWGQGSQVTVSS ?
Found: low polyreactivity

Lookup: Which value of polyreactivity (PSR sort gate) has been reported for QVQLVESGGGLVQAGGSLRLSCAPTGSIFSVYAMGWYRHAPGKESELVATISSSGSTNYADSVKGRFTISRDNAKNTVYLQMNSLKPEDTAVYYCNVVGEYTQSDYSGYDYWGQGTQVTLSS in the records?
Found: low polyreactivity

Lookup: State the recorded polyreactivity (PSR sort gate) for this entry: QVQLVESGGGLVQAGGSLRLSCAASGRIFGIYAMGWFRLAPWKERELVARITGGGSTNYADSLKGRFTISRDNAKNTVYFQMTSLKPEDTAVYYCNTKKLPYAEGYWGQGTQVTVSS
Found: low polyreactivity

----------
# assay: yeast display, Sf9 membrane polyspecificity reagent, FACS + sequencing; frameworks hold sequencing errors
observable: polyreactivity (PSR sort gate)

> print(dat)
                          constructsequence               result
1  QVQLVESGGVLVQAGGSLRLSCAASGRTSKFYAMGWYRPAPGKERELVARITYSGGSTTYADSVKGRFTISRDNAKNTVYLQMNSLKPDDTAVYYFAITSQWLRRYYYWGQGTQVTVSS  high polyreactivity
2  QVQLVESGGGLVQAGGSLRLSCADSGFTCYYYTMGWNRPAPWKGRELVAAISWSGGSTYYADSVKGRFTISRDNAKNTVYLQMNSLKPEDPAVYYCNKAYPGRTYDYWGQGSQVTVSS  high polyreactivity

----------
# assay: yeast display, Sf9 membrane polyspecificity reagent, FACS + sequencing; frameworks hold sequencing errors
observable: polyreactivity (PSR sort gate)

Example entries begin here.
constructSequence	result
QVQLQESGGVQAGGSLRLSCAASGYISRSDVMGWYRQAPVKERELVATINNGTLTYYADSVKGRFTISRDNAKNTVYLQMNSLKPEDTPVHYCAVLQSDTDSLYYWGQGSQVTVSS	low polyreactivity
QVQLVESGGCLVQAGGSLRLSCAASGFTFSDNSMGWYRQAHGKERELVATISQSSGSTSYADSLKGRFTISRDNAKNTVYLQMNSLKPEDTAVYYCAKRRLFYWGLGTQVTVSS	low polyreactivity
QVQLVESGGGLVQAGGSLRLSCAASGSIFPSYAMGWYRQAPGKERELVAAISTWNDGGTYYADSVKGRFTISRDNGKNTVYLQMNSLKPEDTAVYYCAADSPKYYYDYDYWGQGTQVTVSS	low polyreactivity
QVQLVESGGGLVQAGGSLRLSCAASGRIFVYNAMGWYRQAPGKERELVAAITRGCSTYYADSVKGRFTISRDNAKNTVYLQMNSLKPEDTAVYYCASDYQRNDFRWYDYWGQGTQVTVSS	low polyreactivity
QVQLQESGGLVQAGGSLRLSCAASGSISGRNVMGWYRQAPGKEREFVASITDGSSTNDADSVIGRFTISRDNAKNTVYLQMNSLKPKDTAVYYCAAYAHRAKSFGYWGRGTQVTVSS	low polyreactivity

Lookup: Would you mind telling me what polyreactivity (PSR sort gate) value was observed for QVQLVESGGGLVQAGGSLRLSCAASGRTSRYAMGWYRQAPGKERELVAAISRNGGTTSYADSVKGRFTISRDNAKNTVYLQMNSLKPEDTAVYYCNAYSAFVPPTRGYYWGQGTQVTVSS ?
Found: high polyreactivity

Lookup: Which polyreactivity (PSR sort gate) is reported for this sequence? QVQLVESGGGLVQAGGSLRLSCAASGSIFVKYAMGWYRQAPGKERELVAAISRSGTRTYYADSVKGRFTISRDNAKNTVYLQMNSLKPEDTAVYYCAAAATTVRAYEYWGQGTQVTLSS
Found: high polyreactivity

Lookup: If you can, please state the reported polyreactivity (PSR sort gate) value of QVQLVESGGGLVQAGGSLRLSCAASGSTFQTYAMGWFRQAPGQERELVAAITSGGSTNYADSVKGRFTISRDNAKNTVSLQMNSLKPEDTAVYYCNKKSRRQYDYWGQGTQVTVSS .
Found: low polyreactivity

Lookup: Reported polyreactivity (PSR sort gate) for QVQLVESGGGLVQAGGSLRLSCAASGIIFQYNAMGWYRQAPGKEREFVAAISYGGTSTYYADSVKGRFTISRDNAKNTVYLQMNSLKPEDTAVYYCAADYQGYTPSDGRYYWGQGTQVTVSS : what is it?
Found: low polyreactivity

Lookup: Please report the recorded polyreactivity (PSR sort gate) for QVQLVESGGGLVQAGGSLRLSCAASGYIFPYNVMGWSRQAPGKERELVAAITWRVVRTYYADSVKGRFTISRDNAKNTVYLQMNSLKPEDTAVYYCAALSRQSGDYWGQGTQVTVSS .
Found: high polyreactivity

Lookup: // lookup polyreactivity (PSR sort gate) for QVQLGESGGGLVQAGGSLRLSCAASGSTLRNNAMGWYRQAPGKERELVASIRTRGGSTRYADSVKGRFTISRDNAKNTVYLQMNSLKPEDTAVYYCAAQYYGKGWQLDYWGQGSQVTVSS
Found: high polyreactivity

----------
# assay: yeast display, Sf9 membrane polyspecificity reagent, FACS + sequencing; frameworks hold sequencing errors
observable: polyreactivity (PSR sort gate)

constructSequence	polyreactivity (PSR sort gate)
QVQLVESGGGLVQAGGSLRLSCAASGSTFRVYAMGWYRQAPGKERELVAAISGSGGSTYYADSVKGRFTISRDNAKNTVSLQMNSMKPEDTAVYYCAARSWYTEYYWGQGTQVTVSS	high polyreactivity
QVQLVESGGGLVQAGGSLRLSCAASGYILTHYAMGWYRQAPGKERELVAAITSSGGSTYYADSVKGRFTISRDNAKNTVYLQMNSLKPEDTAVYYCAADAGQQEYDYWGQGTQVTVSS	low polyreactivity
QFQLVESGGGLVQARGSLRLSCAASGITFKEYAMGWYRQAPGTERELVAAISKSGGSTYYADSVKGRFTISRDNAKNTVYLQMTSLKPEDTAVYYCAADYAEYEYGDYYWGQGTQVTVSS	low polyreactivity
QVQLVESGGGLVQAGGSLRLSCAASGSILFTNAMGWYRQAPGKERELVAAISSGGSTYYADSVKGRFTISRDNAKNTVYLQMNSLKPEDSAVYYCAADHLNVGREYVEYDYWGQGTQVTVSS	low polyreactivity
QVQLEESGGGLFQAGGSLRLSCAASGRIFDPYAMGWYRQAPGKERDLVATITLRGGITYYADSVKGRFTISRDNAKNTVYLQMNSLKPEDTAVYYCAKKVRSYVRWEYDYWGQGTQVTVSS	low polyreactivity
QVQLVESGGGLVQAGGSLRLSCDASGSTFGYYTMVWYRPSPGKERELVAAISSSGGSTYYADSVKGRFTISRDNAKNTVYLQMYSLKPEDTAVYYCNAEYGFYRAGSRGEYWGQGTQVTVSS	low polyreactivity
QVQLVESGGGLVQAGGSLRLSCAASGITFRNYAMVWSRQAPGKERELVADITTGGSTYADSVKGRFTISRDNAKNTVYLQMISLNPEDTAVYYCAADRDFRTPRLYYWGQGTQVTVSS	low polyreactivity
QVQLVESVGGLVQAGGSLRLSCAASGRIFGGYALGWYRQAPGKERELVAAITSSGSTNYADSVKGRFTISRDNAMNTVYLQMNSLKQEDTAVYYCANDFKTVYYWWGMDYWGQGTQVTVSS	low polyreactivity
QVQLVESGGGLVQAGGSLRLSCAASGTFQSYAMGWNRQAPGKERELVAAISRSGASTYYADSVKGRFTISRDNAKNTVYLQMISLKPEDTAVYYFAARKTSKYYYWGQGTQVTVSS	high polyreactivity
QVQLVESGGGLVQAGGSLRLICAASGSISYEYAMGWYRQAPGKERELVASIDSDGAGTYYADSVKGRFTISLDNAKNTVYLQMNSLKPEDTAVYYCNSEWYYPYYYSRMDYWGQGTQVTVSS	low polyreactivity

Lookup: polyreactivity (PSR sort gate) for QVQLVESGGGLVQAGGSLRLSCAASGLIFSSYAMGWYRQAPGKERELVAAISGSGGSTYYADSEKGRFTISRDNAKNTVYLQMNSLKPEDTAVYYCAAELDDYWVVSEDSSGQGTQVTVSS ?
Found: low polyreactivity

Lookup: Report polyreactivity (PSR sort gate) for QVQLVESGGGLVQAGGSLRLSCAASGITFVSNVMGWYRQAPGKEREFVAAINVSGDSTTYADSVKGRFTISRDNAKNTVYLQRNSLKPEDTAVYYCAAEYNFPEFPWGGEYDYWGQGTQVTVSS please.
Found: low polyreactivity

Lookup: Tell me the measured polyreactivity (PSR sort gate) of QVQLVESGGGLVQAGGSLRLSSAASGRIFSINAMGWYSQAPGKERELVATISWRGGSTYYADSVKGRFTISRDNAKNTVYLQMNSLKPEDTAVYYCAAKYPYYSSYAYGYWGQGTQVTVSS , please.
Found: high polyreactivity

Lookup: Find the recorded polyreactivity (PSR sort gate) belonging to QVQLVESRGGLVQAGGSLRLSCAASGFTFYLNALGWYRPAPGKERELVAAISYSDGSTYYADSVKGRFTISRDNAKNTVYLQMNSLKPEDTAVYYCAADTTDPGGAYQLMDYCGQGTQVTVSS and report it.
Found: high polyreactivity

Lookup: Which polyreactivity (PSR sort gate) reading was recorded for the sequence QVQLVESGGGLVQAGGSLRLSCAASGSIFPAYAMGWYRQAPGKERELVAAITFSGGSTYYADSVKGRFTISRDNAKNTVYLQMNSLKPEDTAVYYCATDSYGWRFNRAITSYGGDYWGQGTQVTVSS ?
Found: low polyreactivity

Lookup: What value of polyreactivity (PSR sort gate) has been reported for the following sequence? QVQLVESGGGLVQAGGSLRLSCAASGFTFGSYAMGWYRQAPGKEREFVAAIRRSGSSTYYADSVKGRFTISRDNAKNTVYLQMTSLKPEDTAVYYCAADVYRRLRRYRYYYWGQGTQVTVSS
Found: low polyreactivity

Lookup: Look at this sequence and give its reported polyreactivity (PSR sort gate). QVQLQERGGGLVQAGGSLCLTCEASGTIFYDGDMGLYRQAPGKEREFVAAINPGGSAYYADSVKGRLPLAAITHTVYLQMFSLKPEDTAVYYCAAEQITGWSRVWVSWYDYWGQGTQVTVSS
Found: low polyreactivity

Lookup: Entry under review: QVQLVESGGGLVQAGRSLRLSCAASGSTFSWNTMGWYRPAPGIERELVAAINSGGSTYYADSVKGRFTISRDNAKNTVYLQMNSLKPEDTAFYYCAARTKYYGRFDYWGQGTQVTVCS . Reported polyreactivity (PSR sort gate)?
Found: low polyreactivity
